- system_tested: Beta-3 adrenergic receptor (Homo sapiens)
- Sequence (P13945 whole entry, looked up): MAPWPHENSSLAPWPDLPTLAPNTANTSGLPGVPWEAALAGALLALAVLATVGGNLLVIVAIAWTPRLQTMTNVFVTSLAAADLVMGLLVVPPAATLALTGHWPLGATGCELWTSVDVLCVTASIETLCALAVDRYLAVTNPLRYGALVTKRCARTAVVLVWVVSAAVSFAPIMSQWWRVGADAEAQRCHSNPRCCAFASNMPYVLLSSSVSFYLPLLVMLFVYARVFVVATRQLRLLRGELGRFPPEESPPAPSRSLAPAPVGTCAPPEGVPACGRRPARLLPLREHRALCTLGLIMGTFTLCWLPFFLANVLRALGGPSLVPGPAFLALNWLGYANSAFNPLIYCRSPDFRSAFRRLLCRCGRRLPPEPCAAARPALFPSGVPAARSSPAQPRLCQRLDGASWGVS
- assay_procedure: Intrinsic activity against cloned human beta3-AR was measured as fractions of the maximal response
Reported values of Intrinsic activity for individual entries
Give the figure only, with no unit attached.

Tell me the measured Intrinsic activity of COc1ccc(S(=O)(=O)N2CCC(NC[C@H](O)COc3cccc4[nH]c5ccccc5c34)CC2)cc1OC , please.
1.2

New cases:
Tell me the measured Intrinsic activity of CCCCOc1ccc(S(=O)(=O)N2CCC(NC[C@H](O)c3ccc(O)c(NS(C)(=O)=O)c3)C2)cc1 (stereo not given in full) , please.
0.79

Tell me the measured Intrinsic activity of COc1ccc(S(=O)(=O)N2CCC(NC[C@H](O)COc3ccc(O)cc3)CC2)cc1 , please.
0.74

Tell me the measured Intrinsic activity of COc1ccc(S(=O)(=O)N2CCC(NC[C@H](O)COc3cccc4[nH]c(O)nc34)CC2)cc1OC , please.
0.87

Tell me the measured Intrinsic activity of COc1ccc(S(=O)(=O)N2CCC(NC[C@H](O)COc3cccc4[nH]c(O)nc34)CC2)cc1 , please.
0.72

Tell me the measured Intrinsic activity of O=S(=O)(c1cccc2nsnc12)N1CCC(NC[C@H](O)COc2cccc3[nH]c(O)nc23)CC1 , please.
0.75

Tell me the measured Intrinsic activity of COc1ccc(S(=O)(=O)N2CCC(NC[C@H](O)COc3cccc4[nH]c5ccccc5c34)CC2)cc1 , please.
0.88

Tell me the measured Intrinsic activity of CCCCCCNC(=O)Nc1ccc(S(=O)(=O)N2CCC(NC[C@H](O)COc3cccc4[nH]c(O)nc34)CC2)cc1 , please.
0.74

Tell me the measured Intrinsic activity of CCCCCCNC(=O)Nc1ccc(S(=O)(=O)N2CCC(NC[C@H](O)c3ccc(O)c(NS(C)(=O)=O)c3)CC2)cc1 , please.
0.82

Tell me the measured Intrinsic activity of CCCCOc1ccc(S(=O)(=O)N2CCC(NC[C@H](O)COc3cccc4[nH]c5ccccc5c34)CC2)cc1 , please.
0.74

Tell me the measured Intrinsic activity of CCCCOc1ccc(S(=O)(=O)N2CC(NC[C@H](O)c3ccc(O)c(NS(C)(=O)=O)c3)C2)cc1 , please.
0.78

Tell me the measured Intrinsic activity of CS(=O)(=O)Nc1cc([C@@H](O)CNC2CCN(S(=O)(=O)c3ccc4oc5ccccc5c4c3)CC2)ccc1O , please.
0.88

Tell me the measured Intrinsic activity of CCCCOc1ccc(S(=O)(=O)N2CC(NC[C@H](O)c3ccc(O)cc3)C2)cc1 , please.
0.82

Tell me the measured Intrinsic activity of O=S(=O)(c1ccc2oc3ccccc3c2c1)N1CCC(NC[C@H](O)COc2cccc3[nH]c(O)nc23)CC1 , please.
0.64

Tell me the measured Intrinsic activity of CCC(C)(C)c1ccc(S(=O)(=O)N2CCC(NC[C@H](O)COc3cccc4[nH]c5ccccc5c34)CC2)cc1 , please.
1
